Source listed as ChEMBL document CHEMBL1221241.

Documented AUC across a set of compounds
# experiment: AUC in Sprague-Dawley rat at 5 mg/kg, iv
# Type: ADME, organism-based
# Set-up: dose 5 mg/kg, route intravenous
# reported conditions: plasma

compound structure	AUC
O=C(NC[C@H](NC(=O)c1c(Cl)cc2c(c1Cl)CCN(C(=O)c1cc3ccccc3o1)C2)C(=O)O)c1cccs1	1260 ng·h/mL
O=C(NC[C@H](NC(=O)c1c(Cl)cc2c(c1Cl)CCN(C(=O)c1ccc3c(c1)OCC3)C2)C(=O)O)c1cccs1	4870 ng·h/mL
O=C(NC[C@H](NC(=O)c1c(Cl)cc2c(c1Cl)CCN(C(=O)c1ccc3ccoc3c1)C2)C(=O)O)c1cccs1	5500 ng·h/mL

Attention now shifts to the item below.
In: Name the reported AUC value associated with the compound O=C(NC[C@H](NC(=O)c1c(Cl)cc2c(c1Cl)CCN(C(=O)c1ccc(Cl)cc1)C2)C(=O)O)c1ccccc1
Out: 487 ng·h/mL

====

# experiment: Oral bioavailability in Sprague-Dawley rat at 20 mg/kg
# Type: ADME, organism-based
# reported conditions: in vivo
measure: bioavailability (%)
Write down the numeric answer in % and omit the unit.

In: Name the reported bioavailability value associated with the molecule CCOC(=O)[C@H](CNC(=O)c1cccs1)NC(=O)c1c(Cl)cc2c(c1Cl)CCN(C(=O)c1ccc3ccoc3c1)C2
Out: 18

====

# experiment: Cmax in C57BL/6 mouse at 100 mg/kg, po
# Type: ADME, organism-based
# Set-up: dose 100 mg/kg, route oral
# reported conditions: in vivo
measure: Cmax (ng/mL)
Write down the numeric answer in ng/mL and omit the unit.

In: Name the reported Cmax value associated with the compound CCOC(=O)[C@H](CNC(=O)c1cccs1)NC(=O)c1c(Cl)cc2c(c1Cl)CCN(C(=O)c1ccc3ccoc3c1)C2
Out: 8460

====

# experiment: Clearance in Sprague-Dawley rat at 5 mg/kg, iv
# Format: ADME, organism-based
# Design: dose 5 mg/kg, route intravenous
# reported conditions: in vivo
Documented clearance across a set of compounds
Write down the numeric answer in mL/min/kg and omit the unit.

compound structure	unit info	reported value
O=C(NC[C@H](NC(=O)c1c(Cl)cc2c(c1Cl)CCN(C(=O)c1ccc3c(c1)OCC3)C2)C(=O)O)c1cccs1	mL/min/kg	19
O=C(NC[C@H](NC(=O)c1c(Cl)cc2c(c1Cl)CCN(C(=O)c1ccc(Cl)cc1)C2)C(=O)O)c1cccs1	mL/min/kg	31
O=C(NC[C@H](NC(=O)c1c(Cl)cc2c(c1Cl)CCN(C(=O)c1ccc3ccoc3c1)C2)C(=O)O)c1cccs1	mL/min/kg	3.2

Attention now shifts to the item below.
In: Name the reported clearance value associated with the compound CCOC(=O)[C@H](CNC(=O)c1cccs1)NC(=O)c1c(Cl)cc2c(c1Cl)CCN(C(=O)c1ccc3ccoc3c1)C2
Out: 5

====

# experiment: Tmax in C57BL/6 mouse at 20 mg/kg, po
# Assay type: ADME, organism-based
# Design: dose 20 mg/kg, route oral
# reported conditions: in vivo
measure: Tmax (min)
Write down the numeric answer in min and omit the unit.

In: Name the reported Tmax value associated with the molecule CCOC(=O)[C@H](CNC(=O)c1cccs1)NC(=O)c1c(Cl)cc2c(c1Cl)CCN(C(=O)c1ccc3ccoc3c1)C2
Out: 48

====

Documented AUC across a set of compounds
# experiment: AUC in Sprague-Dawley rat at 5 mg/kg, iv
# Assay type: ADME, organism-based
# Set-up: dose 5 mg/kg, route intravenous
# reported conditions: plasma
Write down the numeric answer in ng·h/mL and omit the unit.

compound structure	AUC (ng·h/mL)
O=C(NC[C@H](NC(=O)c1c(Cl)cc2c(c1Cl)CCN(C(=O)c1cccc(Cl)c1)C2)C(=O)O)c1cccs1	120
O=C(NC[C@H](NC(=O)c1c(Cl)cc2c(c1Cl)CCN(C(=O)c1ccc(Cl)cc1)C2)C(=O)O)c1cccs1	580

Attention now shifts to the item below.
In: Name the reported AUC value associated with the compound CCOC(=O)[C@H](CNC(=O)c1cccs1)NC(=O)c1c(Cl)cc2c(c1Cl)CCN(C(=O)c1ccc3ccoc3c1)C2
Out: 16800

====

# experiment: Cmax in Sprague-Dawley rat at 20 mg/kg, po
# Format: ADME, organism-based
# Design: dose 20 mg/kg, route oral
# reported conditions: in vivo
measure: Cmax (ng/mL)
Write down the numeric answer in ng/mL and omit the unit.

In: Name the reported Cmax value associated with the compound CCOC(=O)[C@H](CNC(=O)c1cccs1)NC(=O)c1c(Cl)cc2c(c1Cl)CCN(C(=O)c1ccc3ccoc3c1)C2
Out: 3400

====

# system: Intercellular adhesion molecule (ICAM-1), Integrin alpha-L/beta-2 (Homo sapiens, UniProt P05107+P05362+P20701)
# Sequence (P20701 whole entry): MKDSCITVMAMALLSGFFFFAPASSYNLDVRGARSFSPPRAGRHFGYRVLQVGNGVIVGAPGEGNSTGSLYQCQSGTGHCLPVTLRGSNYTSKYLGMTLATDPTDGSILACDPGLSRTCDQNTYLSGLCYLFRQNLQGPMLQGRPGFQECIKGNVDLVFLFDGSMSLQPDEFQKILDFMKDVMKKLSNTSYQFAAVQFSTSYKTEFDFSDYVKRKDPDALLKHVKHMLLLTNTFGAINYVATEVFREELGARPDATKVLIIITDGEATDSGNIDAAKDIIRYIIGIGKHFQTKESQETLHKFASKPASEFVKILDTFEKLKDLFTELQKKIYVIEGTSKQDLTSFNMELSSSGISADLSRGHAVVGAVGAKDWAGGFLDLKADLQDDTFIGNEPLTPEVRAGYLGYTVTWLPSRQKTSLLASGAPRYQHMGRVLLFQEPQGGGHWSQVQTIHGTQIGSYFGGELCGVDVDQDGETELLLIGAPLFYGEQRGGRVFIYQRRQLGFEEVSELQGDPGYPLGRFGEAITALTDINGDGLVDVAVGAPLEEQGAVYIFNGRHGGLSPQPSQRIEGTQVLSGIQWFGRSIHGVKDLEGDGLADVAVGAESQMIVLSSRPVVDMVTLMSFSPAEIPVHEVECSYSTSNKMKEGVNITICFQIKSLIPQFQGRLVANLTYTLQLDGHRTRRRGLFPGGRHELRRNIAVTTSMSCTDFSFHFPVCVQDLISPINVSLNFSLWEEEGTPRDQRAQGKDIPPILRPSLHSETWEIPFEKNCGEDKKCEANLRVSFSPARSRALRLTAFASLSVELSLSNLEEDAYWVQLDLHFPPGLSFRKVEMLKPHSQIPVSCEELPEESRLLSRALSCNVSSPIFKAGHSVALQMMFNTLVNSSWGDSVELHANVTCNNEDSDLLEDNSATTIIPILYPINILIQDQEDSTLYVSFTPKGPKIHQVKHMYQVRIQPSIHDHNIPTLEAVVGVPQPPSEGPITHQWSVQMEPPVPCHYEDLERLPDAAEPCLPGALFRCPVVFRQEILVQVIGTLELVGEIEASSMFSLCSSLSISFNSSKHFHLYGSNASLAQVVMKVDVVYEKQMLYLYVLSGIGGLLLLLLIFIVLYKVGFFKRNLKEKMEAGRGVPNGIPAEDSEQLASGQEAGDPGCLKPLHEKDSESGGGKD
# Sequence (P05362 whole entry): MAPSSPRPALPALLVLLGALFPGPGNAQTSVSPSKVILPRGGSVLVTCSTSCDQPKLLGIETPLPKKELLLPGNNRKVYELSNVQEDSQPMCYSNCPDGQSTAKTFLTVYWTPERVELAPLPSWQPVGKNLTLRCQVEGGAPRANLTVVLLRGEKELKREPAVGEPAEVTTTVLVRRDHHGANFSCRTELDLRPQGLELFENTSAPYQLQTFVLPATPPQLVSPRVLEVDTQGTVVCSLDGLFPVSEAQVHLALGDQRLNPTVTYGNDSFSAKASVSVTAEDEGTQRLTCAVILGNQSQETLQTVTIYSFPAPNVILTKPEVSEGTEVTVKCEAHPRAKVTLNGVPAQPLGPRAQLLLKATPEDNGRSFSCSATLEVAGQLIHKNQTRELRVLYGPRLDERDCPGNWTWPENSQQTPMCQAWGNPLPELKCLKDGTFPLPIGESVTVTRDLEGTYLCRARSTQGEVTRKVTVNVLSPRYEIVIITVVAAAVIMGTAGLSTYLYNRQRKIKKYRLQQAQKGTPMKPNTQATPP
# Sequence (P05107 whole entry): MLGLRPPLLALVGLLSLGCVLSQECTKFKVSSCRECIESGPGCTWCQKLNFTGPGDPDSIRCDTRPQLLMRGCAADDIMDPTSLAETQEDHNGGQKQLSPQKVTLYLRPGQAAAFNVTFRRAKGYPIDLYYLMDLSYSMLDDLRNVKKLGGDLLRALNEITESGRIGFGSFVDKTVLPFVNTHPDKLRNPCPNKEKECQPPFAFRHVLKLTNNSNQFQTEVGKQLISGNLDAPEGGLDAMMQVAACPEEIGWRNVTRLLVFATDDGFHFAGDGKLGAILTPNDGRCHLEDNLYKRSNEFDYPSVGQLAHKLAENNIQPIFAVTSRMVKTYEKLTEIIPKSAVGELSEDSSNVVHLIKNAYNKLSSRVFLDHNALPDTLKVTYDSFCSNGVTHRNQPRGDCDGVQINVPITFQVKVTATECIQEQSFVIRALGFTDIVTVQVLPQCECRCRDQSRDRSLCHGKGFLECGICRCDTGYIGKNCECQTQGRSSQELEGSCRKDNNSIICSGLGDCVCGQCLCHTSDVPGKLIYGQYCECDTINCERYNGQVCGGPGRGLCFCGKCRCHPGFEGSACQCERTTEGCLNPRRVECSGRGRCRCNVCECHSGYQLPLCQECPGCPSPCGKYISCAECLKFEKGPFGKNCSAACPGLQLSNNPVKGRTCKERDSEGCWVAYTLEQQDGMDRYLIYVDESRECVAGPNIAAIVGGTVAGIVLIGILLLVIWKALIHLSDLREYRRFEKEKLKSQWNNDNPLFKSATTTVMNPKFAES
# experiment: Inhibition of LFA1/ICAM1 interaction in human Hut-78 cells by cell migration assay
Documented IC50 across a set of compounds

Known results for compounds:
compound structure	IC50
O=C(NC[C@H](NC(=O)c1c(Cl)cc2c(c1Cl)CCN(C(=O)C1CCCCC1)C2)C(=O)O)c1cccs1	> 1000 nM
O=C(NC[C@H](NC(=O)c1c(Cl)cc2c(c1Cl)CCN(C(=O)c1cc3ccccc3o1)C2)C(=O)O)c1cccs1	5 nM

Attention now shifts to the item below.
In: Name the reported IC50 value associated with the compound O=C(NC[C@H](NC(=O)c1c(Cl)cc2c(c1Cl)CCN(C(=O)c1ccc(Cl)cc1)C2)C(=O)O)c1cccs1
Out: 22 nM

====

# experiment: AUClast in C57BL/6 mouse at 20 mg/kg, po
# Assay type: ADME, organism-based
# Design: time 0 - last, dose 20 mg/kg, route oral
# reported conditions: plasma
measure: AUC(0-t) (ng·h/mL)
Write down the numeric answer in ng·h/mL and omit the unit.

In: Name the reported AUC(0-t) value associated with the molecule CCOC(=O)[C@H](CNC(=O)c1cccs1)NC(=O)c1c(Cl)cc2c(c1Cl)CCN(C(=O)c1ccc3ccoc3c1)C2
Out: 5540

====

# experiment: Clearance in Sprague-Dawley rat at 5 mg/kg, iv
# Assay type: ADME, organism-based
# Parameters: dose 5 mg/kg, route intravenous
# reported conditions: in vivo
Documented clearance across a set of compounds

compound structure	clearance
O=C(NC[C@H](NC(=O)c1c(Cl)cc2c(c1Cl)CCN(C(=O)c1cccc(Cl)c1)C2)C(=O)O)c1cccs1	> 60 mL/min/kg
O=C(NC[C@H](NC(=O)c1c(Cl)cc2c(c1Cl)CCN(C(=O)c1cc3ccccc3o1)C2)C(=O)O)c1cccs1	> 60 mL/min/kg

Attention now shifts to the item below.
In: Name the reported clearance value associated with the compound O=C(NC[C@H](NC(=O)c1c(Cl)cc2c(c1Cl)CCN(C(=O)c1ccc(Cl)cc1)C2)C(=O)O)c1ccccc1
Out: > 60 mL/min/kg
